- TARGET UNDER TEST: Cellular tumor antigen p53 (Homo sapiens) (UniProt P04637)
- Sequence (P04637 whole entry, looked up): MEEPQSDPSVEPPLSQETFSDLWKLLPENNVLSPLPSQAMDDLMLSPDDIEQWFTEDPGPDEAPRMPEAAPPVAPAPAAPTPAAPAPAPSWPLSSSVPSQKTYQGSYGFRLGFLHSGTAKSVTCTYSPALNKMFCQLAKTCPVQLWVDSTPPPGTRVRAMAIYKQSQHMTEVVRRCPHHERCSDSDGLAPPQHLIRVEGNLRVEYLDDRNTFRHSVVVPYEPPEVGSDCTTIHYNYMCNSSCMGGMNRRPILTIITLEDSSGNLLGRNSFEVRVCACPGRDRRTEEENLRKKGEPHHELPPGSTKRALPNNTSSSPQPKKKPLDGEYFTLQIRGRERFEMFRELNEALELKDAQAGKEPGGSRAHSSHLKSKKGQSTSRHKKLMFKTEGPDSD
- ASSAY EXPLANATION: Primary qHTS for small molecule compounds that upregulate eGFP-tagged delta133p53alpha (in N-terminal) cells. (AID 2060322);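 also: cells pre-induced with doxycycline then dosed without doxycycline; series mostly up to about 56 µM; 0% = DMSO vehicle and 100% = reference activator; nearly all actives have a fitted effect of over 75% in size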
- REPORTED CONDITIONS: NCI-H358 eGFP-delta133p53alpha fluorescence, 24 h; hits give high values
Records with an inconclusive call do not appear.
compounds and their reported activation
Give the value, in units of %, as a plain number.

Completed entries (count: 3):
>>> recorded_number("C[C@H](NC(=O)C(C)(C)Oc1ccc(C(F)(F)F)cn1)[C@@H](Cc1ccc(Cl)cc1)c1cccc(C#N)c1")
5.36
>>> recorded_number("S=C(c1ccc(-c2ccc(Cl)c(Cl)c2)o1)N1CCCCC1")
-7.64
>>> recorded_number("O=C(CCCN1CCC(O)(c2ccc(Br)cc2)CC1)c1ccc(F)cc1")
3.35

Enquiry: // lookup activation for `Cc1ccc(COC(=O)N2CC[C@@H](CNc3ncccn3)[C@@H](F)C2)cc1`
Return: 1.91

Enquiry: // lookup activation for CC1OC(=O)C[C@@H]2C(C(=O)O)=CO[C@@H](O[C@H]3O[C@H](CO)[C@@H](O)[C@H](O)[C@H]3O)[C@H]12 (stereo partly specified)
Return: -23.2

Enquiry: // lookup activation for C[C@@H]1CC[C@@]23CC[C@]4(C)[C@@](C=CC5[C@@]6(C)CC[C@H](O)C(C)(C)C6CC[C@]54C)(OC2=O)C3[C@H]1C (stereo partly specified)
Return: 12.2
